target system: TOPOIIIalpha (TRR complex);RMI1 (TRR complex);RMI2 (TRR complex) (Homo sapiens;Homo sapiens;Homo sapiens, UniProt Q13472;Q9H9A7;Q96E14 1-1001;1-625;1-147, ||)
Sequence (Q13472 whole entry, chain 1 of 3): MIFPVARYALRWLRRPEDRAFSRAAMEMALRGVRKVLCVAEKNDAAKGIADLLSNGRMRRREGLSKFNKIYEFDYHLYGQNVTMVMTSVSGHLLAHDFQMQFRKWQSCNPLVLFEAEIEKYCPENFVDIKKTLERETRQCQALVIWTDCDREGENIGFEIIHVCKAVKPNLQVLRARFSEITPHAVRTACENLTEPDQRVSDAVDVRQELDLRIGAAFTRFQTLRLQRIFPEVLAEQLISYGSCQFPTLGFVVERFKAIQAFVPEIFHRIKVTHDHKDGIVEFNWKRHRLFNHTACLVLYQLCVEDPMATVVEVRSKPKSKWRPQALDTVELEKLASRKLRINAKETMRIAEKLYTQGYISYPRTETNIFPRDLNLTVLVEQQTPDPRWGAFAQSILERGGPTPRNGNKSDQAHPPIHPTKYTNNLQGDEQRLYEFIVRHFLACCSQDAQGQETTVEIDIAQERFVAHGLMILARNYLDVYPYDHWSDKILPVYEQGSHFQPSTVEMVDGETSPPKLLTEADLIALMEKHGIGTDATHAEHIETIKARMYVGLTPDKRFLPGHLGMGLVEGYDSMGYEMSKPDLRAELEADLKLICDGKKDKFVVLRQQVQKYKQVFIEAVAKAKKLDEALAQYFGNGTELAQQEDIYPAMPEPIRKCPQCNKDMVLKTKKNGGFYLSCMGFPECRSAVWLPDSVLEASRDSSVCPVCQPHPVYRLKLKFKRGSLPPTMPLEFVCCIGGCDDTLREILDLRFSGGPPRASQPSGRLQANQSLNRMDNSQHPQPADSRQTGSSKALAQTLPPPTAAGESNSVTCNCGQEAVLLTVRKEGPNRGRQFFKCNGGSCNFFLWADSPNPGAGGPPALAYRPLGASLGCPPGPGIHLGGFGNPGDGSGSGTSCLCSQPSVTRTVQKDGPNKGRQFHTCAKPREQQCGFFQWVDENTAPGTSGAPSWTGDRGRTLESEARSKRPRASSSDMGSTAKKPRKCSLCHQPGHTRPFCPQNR
Sequence (Q9H9A7 whole entry, chain 2 of 3): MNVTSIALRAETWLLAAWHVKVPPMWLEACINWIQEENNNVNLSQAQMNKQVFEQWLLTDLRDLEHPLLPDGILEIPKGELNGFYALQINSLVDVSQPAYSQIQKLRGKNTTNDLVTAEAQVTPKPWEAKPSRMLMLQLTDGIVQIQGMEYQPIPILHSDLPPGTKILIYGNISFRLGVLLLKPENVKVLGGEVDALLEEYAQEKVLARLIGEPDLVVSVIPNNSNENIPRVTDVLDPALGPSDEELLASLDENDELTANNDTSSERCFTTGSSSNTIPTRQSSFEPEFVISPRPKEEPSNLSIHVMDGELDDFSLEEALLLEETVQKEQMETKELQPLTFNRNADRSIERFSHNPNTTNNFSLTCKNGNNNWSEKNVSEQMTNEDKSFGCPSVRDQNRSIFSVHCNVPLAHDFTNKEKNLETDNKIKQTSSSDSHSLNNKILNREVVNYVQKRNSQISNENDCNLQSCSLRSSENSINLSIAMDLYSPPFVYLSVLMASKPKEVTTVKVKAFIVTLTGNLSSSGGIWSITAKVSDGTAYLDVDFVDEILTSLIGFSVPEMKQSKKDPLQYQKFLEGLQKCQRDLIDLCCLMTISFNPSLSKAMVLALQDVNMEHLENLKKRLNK
Sequence (Q96E14 whole entry, chain 3 of 3): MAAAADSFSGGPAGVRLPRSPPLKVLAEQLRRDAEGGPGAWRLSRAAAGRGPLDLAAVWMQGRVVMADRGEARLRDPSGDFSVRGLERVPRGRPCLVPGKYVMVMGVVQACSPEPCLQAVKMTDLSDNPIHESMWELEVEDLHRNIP
method description: fluorescence anisotropy; 5 mM MgCl2; 50 mM Tris-HCl pH 7.5, 50 mM NaCl, 1 mM DTT, 5 mM MgCl2, 50 µg/mL BSA, 25 °C; 10 nM labeled DNA in direct titrations
stated conditions: protein: recombinant;recombinant;recombinant; tags: His;;; copies: 1;1;1; label: 3'-fluorescein; single strand
measured property: Kd (nM)
# number only, unit nM dropped from output

Annotate the binder ss54-FLU (ssDNA) DNA: TCCTTTTGATAAGAGGTCATTTTTGCGGATGGCTTAGAGCTTAATTGCGCAACG with its measured Kd. 64

FYI, the data here is from paper PMC8813930.
